Origin of measurements: paper PMC12735704

- Test system: MCF-7 cells
- measurement_description: Cytotoxicity study by MTT proliferation assay
- Format: cell-based
- test_context: Homo sapiens, MCF7, inhibition of cell growth, 72 h, read-out: MCF-7 % Inh ± DS (10 μM)
readout_type: inhibition at 10 µM (%)
A number alone suffices; assume %.

Please indicate inhibition at 10 µM recorded for O=C1C(c2ccccc2)=Cc2cccc3cccc1c23 [Compound 4, 2-phenyl-1H-phenalen-1-one]
14

Please indicate inhibition at 10 µM recorded for O=C1C(I)=Cc2cccc3cccc1c23 [Compound 3, 2-Iodo-1H-phenalen-1-one]
4

Please indicate inhibition at 10 µM recorded for O=C1C=Cc2cccc3ccc(-c4ccc(F)cc4)c1c23 [Compound 11, 9-(4-fluorophenyl)-1H-phenalen-1-one]
8

Please indicate inhibition at 10 µM recorded for N#CC1=Cc2cccc3cccc(c23)C1=O [Compound 20, 1-oxo-1H-phenalene-2-carbonitrile]
11
